Biological target: T1, R223A Rad9A 94-266 (Homo sapiens, UniProt Q99638 94-266, R223A)
T1 sequence: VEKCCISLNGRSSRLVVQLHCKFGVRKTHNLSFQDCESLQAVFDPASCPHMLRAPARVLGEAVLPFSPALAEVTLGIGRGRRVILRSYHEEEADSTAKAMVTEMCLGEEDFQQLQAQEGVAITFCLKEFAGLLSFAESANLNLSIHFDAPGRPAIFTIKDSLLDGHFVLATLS
Experiment: EMSA; EMSA: 20 mM Tris-HCl pH 7.6, 80 mM NaCl, 1 mM DTT, 1 mM EDTA, 1.5% glycerol, 200 ng/ml poly dI/dC, 50 ug/ml BSA, 10 nM DNA; 6% native PAGE in 50 mM Tris-borate
Settings: protein: recombinant; tags: His; label: 5'-fluorescein (6-carboxyfluorescein) on HC40; blunt
MEASURE: Kd (nM)
Respond numerically; units are nM and should not be typed.

Q. Provide only the value of recorded Kd for HC40/HG40 (dsDNA) DNA 1: CCGAGGAATTCGCCTTCTGCTCCATAGCCACTGGTTGTAG DNA 2: CTACAACCAGTGGCTATGGAGCAGAAGGCGAATTCCTCGG
A. 1170
